# Study Target: LNX2-2 (Homo sapiens)
# Sequence (Q8N448 339-422): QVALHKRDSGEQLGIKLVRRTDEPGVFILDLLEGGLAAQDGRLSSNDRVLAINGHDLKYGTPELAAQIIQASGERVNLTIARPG
# Experimental Protocol: Holdup assay, LNX2-2
# Assay type: binding
*1 amine or outer side, *2 acyl side, *3 side chain or, on linkers, in order; H or OH if unused. Where a SMILES comes first, the peptide text is derived from it. The star is where a group is joined. X1 = O=C(CCCC[C@@H]1SC[C@@H]2NC(=O)N[C@@H]21)NCCCOCCOCCOCCCN*; Suc = O=C(CCC(=O)[*:2])[*:1]

- Compound: "CC[C@H](C)[C@H](NC(=O)[C@H](CCC(N)=O)NC(=O)[C@@H](NC(=O)[C@H](Cc1c[nH]cn1)NC(=O)[C@H](CCC(N)=O)NC(=O)[C@H](CC(=O)O)NC(=O)[C@H](CCC(=O)O)NC(=O)[C@H](CC(=O)O)NC(=O)CCC(=O)NCCCOCCOCCOCCCNC(=O)CCCC[C@@H]1SC[C@@H]2NC(=O)N[C@@H]21)[C@@H](C)O)C(=O)N[C@H](C(=O)N[C@@H](CCCNC(=N)N)C(=O)N[C@H](C(=O)O)C(C)C)[C@@H](C)O [PTEN_KR] ({X1-Suc}-DEDQHTQITRV-OH)"
  BI: 0.256

* * *

# Study Target: MAGI2-5 (Homo sapiens)
# Sequence (Q86UL8 whole entry): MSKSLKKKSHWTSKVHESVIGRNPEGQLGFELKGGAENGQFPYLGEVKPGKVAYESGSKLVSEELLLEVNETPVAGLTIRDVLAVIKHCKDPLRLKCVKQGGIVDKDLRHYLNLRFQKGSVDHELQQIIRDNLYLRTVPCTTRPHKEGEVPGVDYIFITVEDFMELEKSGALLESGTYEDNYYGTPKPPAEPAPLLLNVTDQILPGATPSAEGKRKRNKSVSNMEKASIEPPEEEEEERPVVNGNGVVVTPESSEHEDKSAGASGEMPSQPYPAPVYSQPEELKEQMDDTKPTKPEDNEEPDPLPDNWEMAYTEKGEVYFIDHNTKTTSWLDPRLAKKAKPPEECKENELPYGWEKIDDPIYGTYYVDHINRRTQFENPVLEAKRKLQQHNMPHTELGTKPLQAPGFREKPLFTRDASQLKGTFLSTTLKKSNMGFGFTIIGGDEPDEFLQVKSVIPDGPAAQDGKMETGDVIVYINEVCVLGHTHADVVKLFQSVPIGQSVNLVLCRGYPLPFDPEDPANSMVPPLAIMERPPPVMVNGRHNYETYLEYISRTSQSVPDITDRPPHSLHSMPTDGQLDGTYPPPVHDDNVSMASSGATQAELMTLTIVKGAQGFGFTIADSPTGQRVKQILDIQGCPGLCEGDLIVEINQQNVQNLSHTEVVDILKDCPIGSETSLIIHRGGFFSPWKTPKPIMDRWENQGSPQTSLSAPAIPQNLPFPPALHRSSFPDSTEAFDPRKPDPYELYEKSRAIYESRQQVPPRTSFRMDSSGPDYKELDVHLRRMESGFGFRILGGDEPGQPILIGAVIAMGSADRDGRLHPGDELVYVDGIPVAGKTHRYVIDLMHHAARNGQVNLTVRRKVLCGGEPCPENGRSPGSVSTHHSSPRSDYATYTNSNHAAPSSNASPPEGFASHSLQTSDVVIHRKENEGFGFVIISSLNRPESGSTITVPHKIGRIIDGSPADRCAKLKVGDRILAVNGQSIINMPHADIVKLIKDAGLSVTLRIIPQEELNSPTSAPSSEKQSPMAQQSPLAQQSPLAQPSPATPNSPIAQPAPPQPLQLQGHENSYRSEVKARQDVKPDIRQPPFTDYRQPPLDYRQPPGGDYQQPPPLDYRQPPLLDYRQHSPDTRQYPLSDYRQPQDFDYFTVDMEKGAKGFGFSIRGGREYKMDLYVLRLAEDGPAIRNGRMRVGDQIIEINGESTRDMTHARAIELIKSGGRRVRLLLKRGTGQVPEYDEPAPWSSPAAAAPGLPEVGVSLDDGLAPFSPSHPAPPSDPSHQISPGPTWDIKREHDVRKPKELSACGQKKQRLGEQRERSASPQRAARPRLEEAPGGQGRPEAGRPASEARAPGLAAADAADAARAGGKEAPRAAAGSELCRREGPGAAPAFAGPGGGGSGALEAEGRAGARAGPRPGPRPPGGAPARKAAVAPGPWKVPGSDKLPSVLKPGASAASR
# Experimental Protocol: Holdup assay, MAGI2-5
# Type: binding
Parameter Measured: BI

- Smiles Repr: "CC[C@H](C)[C@H](NC(=O)[C@H](CCC(N)=O)NC(=O)[C@@H](NC(=O)[C@H](Cc1c[nH]cn1)NC(=O)[C@H](CCC(N)=O)NC(=O)[C@H](CC(=O)O)NC(=O)[C@H](CCC(=O)O)NC(=O)[C@H](CC(=O)O)NC(=O)CCC(=O)NCCCOCCOCCOCCCNC(=O)CCCC[C@@H]1SC[C@@H]2NC(=O)N[C@@H]21)[C@@H](C)O)C(=O)N[C@H](C(=O)N[C@@H](CCCCNC(C)=O)C(=O)N[C@H](C(=O)O)C(C)C)[C@@H](C)O"
  Parameter Measured: "BI"
  Number: 0.148

* * *

# Test system: 266 human PDZ domains (PDZome)
# Experimental Protocol: Holdup assay (chromatographic retention, PDZome-binding profile, BI)
# Parameters: key: binding intensity: 0.00 = no binding, 1.00 = maximal binding
# Measurement Parameters: PDZ domain PREX2-2
*1 amine or outer side, *2 acyl side, *3 side chain or, on linkers, in order; H or OH if unused. Where a SMILES comes first, the peptide text is derived from it. The star is where a group is joined. X1 = O=C(CCCC[C@@H]1SC[C@@H]2NC(=O)N[C@@H]21)NCCCOCCOCCOCCCN*; Suc = O=C(CCC(=O)[*:2])[*:1]
Here, each record is paired with measured BI data.

- Compound: "CC[C@H](C)[C@H](NC(=O)[C@H](CCC(N)=O)NC(=O)[C@@H](NC(=O)[C@H](Cc1c[nH]cn1)NC(=O)[C@H](CCC(N)=O)NC(=O)[C@H](CC(=O)O)NC(=O)[C@H](CCC(=O)O)NC(=O)[C@H](CC(=O)O)NC(=O)CCC(=O)NCCCOCCOCCOCCCNC(=O)CCCC[C@@H]1SC[C@@H]2NC(=O)N[C@@H]21)[C@@H](C)O)C(=O)N[C@H](C(=O)N[C@@H](CCCCN)C(=O)N[C@H](C(=O)O)C(C)C)[C@@H](C)O [PTEN_11]"
  BI: -0.021
- Compound: "CC[C@H](C)[C@H](NC(=O)[C@H](CCC(N)=O)NC(=O)[C@@H](NC(=O)[C@H](Cc1c[nH]cn1)NC(=O)[C@H](CCC(N)=O)NC(=O)[C@H](CC(=O)O)NC(=O)[C@H](CCC(=O)O)NC(=O)[C@H](CC(=O)O)NC(=O)CCC(=O)NCCCOCCOCCOCCCNC(=O)CCCC[C@@H]1SC[C@@H]2NC(=O)N[C@@H]21)[C@@H](C)O)C(=O)N[C@H](C(=O)N[C@@H](CCCNC(=N)N)C(=O)N[C@H](C(=O)O)C(C)C)[C@@H](C)O [PTEN_KR] ({X1-Suc}-DEDQHTQITRV-OH)"
  BI: -0.004
- Compound: "CC[C@H](C)[C@H](NC(=O)[C@H](CCC(N)=O)NC(=O)[C@@H](NC(=O)[C@H](Cc1c[nH]cn1)NC(=O)[C@H](CCC(N)=O)NC(=O)[C@H](CC(=O)O)NC(=O)[C@H](CCC(=O)O)NC(=O)[C@H](CC(=O)O)NC(=O)CCC(=O)NCCCOCCOCCOCCCNC(=O)CCCC[C@@H]1SC[C@@H]2NC(=O)N[C@@H]21)[C@@H](C)O)C(=O)N[C@H](C(=O)N[C@@H](CCCCNC(C)=O)C(=O)N[C@H](C(=O)O)C(C)C)[C@@H](C)O [PTEN_Ac]"
  BI: 0.096
- Compound: "CC[C@H](C)[C@H](NC(=O)[C@H](CCC(N)=O)NC(=O)[C@@H](NC(=O)[C@H](Cc1c[nH]cn1)NC(=O)[C@H](CCC(N)=O)NC(=O)[C@H](CC(=O)O)NC(=O)[C@H](CCC(=O)O)NC(=O)[C@H](CC(=O)O)NC(=O)[C@H](Cc1ccccc1)NC(=O)[C@@H]1CCCN1C(=O)CCC(=O)NCCCOCCOCCOCCCNC(=O)CCCC[C@@H]1SC[C@@H]2NC(=O)N[C@@H]21)[C@@H](C)O)C(=O)N[C@H](C(=O)N[C@@H](CCCCN)C(=O)N[C@H](C(=O)O)C(C)C)[C@@H](C)O [PTEN_13] ({X1-Suc}-PFDEDQHTQITKV-OH)"
  BI: -0.046

* * *

# Tested on: 266 human PDZ domains (PDZome)
# Experimental Protocol: Holdup assay (chromatographic retention, PDZome-binding profile, BI)
# Design: key: binding intensity: 0.00 = no binding, 1.00 = maximal binding
# Measurement Parameters: holdup, singlicate; highest BI in the PDZome profile; BI standard error ~0.07
*1 amine or outer side, *2 acyl side, *3 side chain or, on linkers, in order; H or OH if unused. Where a SMILES comes first, the peptide text is derived from it. The star is where a group is joined. X1 = O=C(CCCC[C@@H]1SC[C@@H]2NC(=O)N[C@@H]21)NCCCOCCOCCOCCCN*; Suc = O=C(CCC(=O)[*:2])[*:1]
Quick reference: maximal BI of the listed items.
Parameter Measured: maximal BI

- Compound: "CC[C@H](C)[C@H](NC(=O)[C@H](CCC(N)=O)NC(=O)[C@@H](NC(=O)[C@H](Cc1c[nH]cn1)NC(=O)[C@H](CCC(N)=O)NC(=O)[C@H](CC(=O)O)NC(=O)[C@H](CCC(=O)O)NC(=O)[C@H](CC(=O)O)NC(=O)CCC(=O)NCCCOCCOCCOCCCNC(=O)CCCC[C@@H]1SC[C@@H]2NC(=O)N[C@@H]21)[C@@H](C)O)C(=O)N[C@H](C(=O)N[C@@H](CCCNC(=N)N)C(=O)N[C@H](C(=O)O)C(C)C)[C@@H](C)O [PTEN_KR] ({X1-Suc}-DEDQHTQITRV-OH)"
  Number: 0.86
- Compound: "CC[C@H](C)[C@H](NC(=O)[C@H](CCC(N)=O)NC(=O)[C@@H](NC(=O)[C@H](Cc1c[nH]cn1)NC(=O)[C@H](CCC(N)=O)NC(=O)[C@H](CC(=O)O)NC(=O)[C@H](CCC(=O)O)NC(=O)[C@H](CC(=O)O)NC(=O)[C@H](Cc1ccccc1)NC(=O)[C@@H]1CCCN1C(=O)CCC(=O)NCCCOCCOCCOCCCNC(=O)CCCC[C@@H]1SC[C@@H]2NC(=O)N[C@@H]21)[C@@H](C)O)C(=O)N[C@H](C(=O)N[C@@H](CCCCN)C(=O)N[C@H](C(=O)O)C(C)C)[C@@H](C)O [PTEN_13] ({X1-Suc}-PFDEDQHTQITKV-OH)"
  Number: 0.81
- Compound: "CC[C@H](C)[C@H](NC(=O)[C@H](CCC(N)=O)NC(=O)[C@@H](NC(=O)[C@H](Cc1c[nH]cn1)NC(=O)[C@H](CCC(N)=O)NC(=O)[C@H](CC(=O)O)NC(=O)[C@H](CCC(=O)O)NC(=O)[C@H](CC(=O)O)NC(=O)CCC(=O)NCCCOCCOCCOCCCNC(=O)CCCC[C@@H]1SC[C@@H]2NC(=O)N[C@@H]21)[C@@H](C)O)C(=O)N[C@H](C(=O)N[C@@H](CCCCNC(C)=O)C(=O)N[C@H](C(=O)O)C(C)C)[C@@H](C)O"
  Number: 0.90
- Compound: "CC[C@H](C)[C@H](NC(=O)[C@H](CCC(N)=O)NC(=O)[C@@H](NC(=O)[C@H](Cc1c[nH]cn1)NC(=O)[C@H](CCC(N)=O)NC(=O)[C@H](CC(=O)O)NC(=O)[C@H](CCC(=O)O)NC(=O)[C@H](CC(=O)O)NC(=O)CCC(=O)NCCCOCCOCCOCCCNC(=O)CCCC[C@@H]1SC[C@@H]2NC(=O)N[C@@H]21)[C@@H](C)O)C(=O)N[C@H](C(=O)N[C@@H](CCCCN)C(=O)N[C@H](C(=O)O)C(C)C)[C@@H](C)O"
  Number: 0.71
